system: MS2 coat protein; assay: apparent KD of MS2 coat protein; designed switch direction (-1 OFF switch, 1 ON switch): -1; higher = weaker reporter binding; conditions: Eterna round: R95; input ligand: none
Reported apparent KD of MS2 coat protein values follow for various sequences
Entry rule: numbers only, all in µM.

Worked examples follow.
AAAUACAAGCAAAGAUUCUACAUGAGGAUCACCCAUGUGCUCGUCUUAUAAAGUACUAUCACGAAAGUGAUAGUACA [Sensor 3, v1 - 33] (puzzle: Sensor v3, turn-off variant 1); 0.0232
CGGGAGGGACAAGCUUUUUGCACGUCUGUUAUUGAUGCUACAUGAGGAUCACCCAUGUUUAAGAUGUGUGAGGAUGG [JR_SV3TOV2_Sub053] (puzzle: Sensor v3, turn-off variant 2); 0.0313
UUUAAUUUUUUUUUUUUACAAGCUUUUUGCUCGUCUUAUACAUGAGGAUCACCCAUGUGGGUGGAAGGUAAAUUAUC [JMF 70] (puzzle: Sensor v3, turn-off variant 2); 0.176
GGUUGGCGAGGAUAUACAUGAGGAUCACCCAUGUGAGAAAAUAGUGAGGAAAAGAAAAGUAGAAGGCGCUGACG [Mat - Exclusion 3 - Mod of Salish D54] (puzzle: Exclusion 3); 0.0415
CCAUCCAGUGUGAGGAUAUGCUGGUCCUUGGAUCAGCAGAAGGCACAUGAGGAUCACCCAUGUGAAUAGGAUGG [Mat - Exclusion 4 - JL Mod - D85] (puzzle: Brourd's mod of Exclusion 4); 0.0241

Query :: Provide apparent KD of MS2 coat protein, tested on MS2 coat protein, for AUACCAUGCCGCCUAAUAGCUUUUUGCCCGUCUUAUAAAACAUGAGGAUCACCCAUGUAAAACUCGUGGCGUGACCC [Quarre] (puzzle: Sensor v3, turn-off variant 2) .
Result :: 0.195

Query :: Provide apparent KD of MS2 coat protein, tested on MS2 coat protein, for AGUAACCGUCACGAAAGUGAUGGUUACACAAGCAAUGAAACAUGAGGAUCACCCAUGUCCUCAUUUGCUCGUCUUAU [Sensor 3 - 40] (puzzle: Sensor v3, turn-off variant 2) .
Result :: 0.0268

Query :: Provide apparent KD of MS2 coat protein, tested on MS2 coat protein, for CUUAGCCUAAAAUCACGCAAGCUUCUUGCUUGUCUUAAGACAUGAGGAUCACCCAUGUCCGGGCUGAACUUAUGGAA [Enonzave] (puzzle: Sensor v3, turn-off variant 2) .
Result :: 0.0174

Query :: Provide apparent KD of MS2 coat protein, tested on MS2 coat protein, for GAAAAGGUAGGAUAUACGAUAAGAAAGGGUAGAUAAUAAACACAUGAGGAUCACCCAUGUAGAAGGACCAAAAG [salish99_ex2_r3_102] (puzzle: Exclusion 2) .
Result :: 0.0397

Query :: Provide apparent KD of MS2 coat protein, tested on MS2 coat protein, for CAUGAUCUUCGGAUCAUGUACAUGAGGAUCACCCAUGUGACGAGUAUAUCCUCAAACAAGCUUUUUGCUCGUCUUAU [Sensor v3 - Turn-off variant 1 - 22] (puzzle: Sensor v3, turn-off variant 1) .
Result :: 0.327

Reference source for all entries: the supplement of paper PMC9170038
